molecular target: RAC-alpha serine/threonine-protein kinase (Homo sapiens); test: Inhibition of Akt1 in human AN3CA cells assessed as phosphorylation of Akt at S473 after 2 hrs by Western Blot analysis; type: cell-based, AN3-CA
Sequence (P31749 whole entry): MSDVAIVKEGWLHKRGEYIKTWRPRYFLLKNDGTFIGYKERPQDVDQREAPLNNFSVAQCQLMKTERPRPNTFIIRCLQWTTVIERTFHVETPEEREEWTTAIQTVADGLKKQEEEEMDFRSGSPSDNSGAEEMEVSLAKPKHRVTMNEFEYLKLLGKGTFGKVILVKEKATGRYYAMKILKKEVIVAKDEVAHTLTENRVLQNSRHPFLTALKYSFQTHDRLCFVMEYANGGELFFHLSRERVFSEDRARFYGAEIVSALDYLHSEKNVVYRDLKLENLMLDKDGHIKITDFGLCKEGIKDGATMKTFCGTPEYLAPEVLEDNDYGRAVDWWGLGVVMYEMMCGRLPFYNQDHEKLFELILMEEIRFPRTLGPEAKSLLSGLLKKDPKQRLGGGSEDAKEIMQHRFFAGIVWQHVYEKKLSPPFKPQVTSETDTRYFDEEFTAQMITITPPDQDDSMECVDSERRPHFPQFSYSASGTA
pIC50: −log10 of the molar value.
value.type: pIC50

(1) Nc1ncccc1-c1nc2ccc(-c3cccnc3)nc2n1-c1ccc(CNC(=O)c2ccccc2)cc1
(2) CC(=O)Nc1cccc(-c2ccc3nc(-c4cccnc4N)n(-c4ccc(CNC(=O)c5cccc(F)c5)cc4)c3n2)c1
(3) Nc1ncccc1-c1nc2ccc(-c3cccnc3)nc2n1-c1ccc(CC(=O)Nc2ccccc2)cc1
(4) Nc1ncccc1-c1nc2cc(Br)cnc2n1-c1ccc(CNC(=O)c2ccccc2)cc1
(5) CC(=O)Nc1cccc(-c2ccc3nc(-c4cccnc4N)n(-c4ccc(CNC(=O)c5ccccc5)cc4)c3n2)c1
Place the items in sequence of falling pIC50. Reply format: the labels, ordered as requested.
2, 3, 5, 1, 4

----------
molecular target: RAC-beta serine/threonine-protein kinase (Homo sapiens, UniProt P31751); experiment: Binding affinity to Akt2 (1 to 481) expressed in Sf9 cells assessed as change in melting temperature at 15 uM
Sequence (P31751 whole entry): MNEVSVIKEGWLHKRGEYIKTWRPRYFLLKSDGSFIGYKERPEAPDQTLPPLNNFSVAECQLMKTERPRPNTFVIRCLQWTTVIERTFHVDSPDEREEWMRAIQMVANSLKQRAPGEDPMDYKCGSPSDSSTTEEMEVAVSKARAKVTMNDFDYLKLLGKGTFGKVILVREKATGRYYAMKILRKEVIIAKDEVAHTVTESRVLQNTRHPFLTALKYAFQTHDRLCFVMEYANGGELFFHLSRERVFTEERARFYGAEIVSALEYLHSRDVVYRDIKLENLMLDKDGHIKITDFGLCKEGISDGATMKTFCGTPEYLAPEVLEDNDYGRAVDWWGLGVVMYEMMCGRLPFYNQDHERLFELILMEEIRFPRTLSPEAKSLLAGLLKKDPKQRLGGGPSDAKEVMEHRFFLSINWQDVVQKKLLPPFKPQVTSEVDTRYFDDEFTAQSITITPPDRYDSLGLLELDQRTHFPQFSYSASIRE
value.type: ΔTm (°C)

substance.smiles: Nc1ncccc1-c1nc2cc(Br)cnc2n1-c1ccc(CNC(=O)c2ccccc2)cc1
unit.abbreviation: °C
ΔTm: 3
--
substance.smiles: Nc1ncccc1-c1nc2ccc(-c3cccnc3)nc2n1-c1ccc(CC(=O)Nc2ccccc2)cc1
unit.abbreviation: °C
ΔTm: 5.1
--
substance.smiles: Nc1ncccc1-c1nc2cccnc2n1-c1ccc(CNC(=O)c2ccccc2)cc1
unit.abbreviation: °C
ΔTm: 1.3

(P) Nc1ncccc1-c1nc2ccc(-c3cccnc3)nc2n1-c1ccc(CNC(=O)c2cccc(F)c2)cc1
(Q) Nc1ncccc1-c1nc2cc(C3CCCC3)cnc2n1-c1ccc(CNC(=O)c2ccccc2)cc1
(R) Nc1ncccc1-c1nc2cccnc2n1-c1ccc(CC(=O)Nc2ccccc2)cc1
Ascending sort, ΔTm. Reply format: the labels, ordered as requested.
R, Q, P

(A) CC(=O)Nc1cccc(-c2ccc3nc(-c4cccnc4N)n(-c4ccc(CNC(=O)c5cccc(F)c5)cc4)c3n2)c1
(B) Nc1ncccc1-c1nc2ccc(-c3cccnc3)nc2n1-c1ccc(CNC(=O)c2ccccc2)cc1
Hi team, can someone confirm which has the larger ΔTm: A or B ? Thanks. Answer by stating the label of the chosen item.
A
(A: 7.7 °C, B: 4 °C)

----------
molecular target: RAC-alpha serine/threonine-protein kinase (Homo sapiens); assay: Inhibition of Akt1 in human A2780 cells assessed as phosphorylation PRAS40 at T246 after 2 hrs by Western Blot analysis; format: cell-based
value.type: IC50 (nM)

These recorded examples may help you get a feel for the data.
substance.smiles: Nc1ncccc1-c1nc2cc(C3CCCC3)cnc2n1-c1ccc(CNC(=O)c2ccccc2)cc1
target.system: RAC-alpha serine/threonine-protein kinase (Homo sapiens)
unit.abbreviation: nM
IC50: 2100
//
substance.smiles: Nc1ncccc1-c1nc2cc(-c3cccnc3)cnc2n1-c1ccc(CNC(=O)c2cccc(F)c2)cc1
target.system: RAC-alpha serine/threonine-protein kinase (Homo sapiens)
unit.abbreviation: nM
IC50: 580
//
substance.smiles: Nc1ncccc1-c1nc2ccc(-c3cccnc3)nc2n1-c1ccc(CC(=O)Nc2ccccc2)cc1
target.system: RAC-alpha serine/threonine-protein kinase (Homo sapiens)
unit.abbreviation: nM
IC50: 480
//
substance.smiles: CC(=O)Nc1cccc(-c2ccc3nc(-c4cccnc4N)n(-c4ccc(CNC(=O)c5ccccc5)cc4)c3n2)c1
target.system: RAC-alpha serine/threonine-protein kinase (Homo sapiens)
unit.abbreviation: nM
IC50: 910
//
substance.smiles: CC(=O)Nc1cccc(-c2ccc3nc(-c4cccnc4N)n(-c4ccc(CNC(=O)c5cccc(F)c5)cc4)c3n2)c1
target.system: RAC-alpha serine/threonine-protein kinase (Homo sapiens)
unit.abbreviation: nM
IC50: 250
//
substance.smiles: Nc1ncccc1-c1nc2ccc(-c3cccnc3)nc2n1-c1ccc(CNC(=O)c2cccc(F)c2)cc1
target.system: RAC-alpha serine/threonine-protein kinase (Homo sapiens)
unit.abbreviation: nM
IC50: 1300

(P) Nc1ncccc1-c1nc2ccc(-c3ccccc3)nc2n1-c1ccc(CNC(=O)c2ccccc2)cc1
(Q) CC(=O)Nc1cccc(-c2ccc3nc(-c4cccnc4N)n(-c4ccc(CC(=O)Nc5cccc(F)c5)cc4)c3n2)c1
(R) Nc1ncccc1-c1nc2cc(Br)cnc2n1-c1ccc(CNC(=O)c2ccccc2)cc1
Place the items in sequence of falling IC50. Reply format: the labels, ordered as requested.
R, P, Q
(R: 3100 nM, P: 410 nM, Q: 140 nM)
